Origin of measurements: paper PMC10574094

# PROTOCOL DETAILS: Pharmacokinetics in mice, single IP injection
# Assay type: in vivo
# TEST CONTEXT: mice, single IP 25 mg/kg, plasma; 25 mg/kg
PROPERTY MEASURED: Cmax (nM)
Response body: numeric value in nM, unit text excluded.

So for `Cc1ncsc1-c1ccc([C@H](C)NC(=O)[C@@H]2C[C@@H](O)CN2C(=O)[C@@H](NC(=O)CCCCCCCCCN2CCN(C(=O)CCCCCC3(CN)CCN(c4cnc(Sc5cccc(Cl)c5Cl)c(N)n4)CC3)CC2)C(C)(C)C)cc1` , the logged Cmax turned out to be 1200

====

# PROTOCOL DETAILS: Pharmacokinetics in mice, single IP injection
# Format: in vivo
# TEST CONTEXT: Nude, mouse, plasma, ip, 50 mg/kg, mice, single IP 50 mg/kg
PROPERTY MEASURED: Cmax (nM)
Response body: numeric value in nM, unit text excluded.

So for `Cc1ncsc1-c1ccc([C@H](C)NC(=O)[C@@H]2C[C@@H](O)CN2C(=O)[C@@H](NC(=O)CCCCCCCCCN2CCN(C(=O)CCCCCC3(CN)CCN(c4cnc(Sc5cccc(Cl)c5Cl)c(N)n4)CC3)CC2)C(C)(C)C)cc1` , the logged Cmax turned out to be 2510

====

# PROTOCOL DETAILS: Pharmacokinetics in mice, single IP injection
# Assay type: in vivo
# TEST CONTEXT: Nude, mouse, plasma, intraperitoneal, 50 mg/kg, 50 mg/kg IP, 0.5 h, individual animals
PROPERTY MEASURED: concentration at 0.5 h (nM)
Response body: numeric value in nM, unit text excluded.

So for Cc1ncsc1-c1ccc([C@H](C)NC(=O)[C@@H]2C[C@@H](O)CN2C(=O)[C@@H](NC(=O)CCCCCCCCCN2CCN(C(=O)CCCCCC3(CN)CCN(c4cnc(Sc5cccc(Cl)c5Cl)c(N)n4)CC3)CC2)C(C)(C)C)cc1 [P9] , the logged concentration at 0.5 h turned out to be 1760

====

# PROTOCOL DETAILS: Pharmacokinetics in mice, single IP injection
# Assay type: in vivo
# TEST CONTEXT: Nude, mouse, plasma, intraperitoneal, 50 mg/kg, 50 mg/kg IP, 2 h, individual animals
PROPERTY MEASURED: concentration at 2 h

So for `Cc1ncsc1-c1ccc([C@H](C)NC(=O)[C@@H]2C[C@@H](O)CN2C(=O)[C@@H](NC(=O)CCCCCCCCCN2CCN(C(=O)CCCCCC3(CN)CCN(c4cnc(Sc5cccc(Cl)c5Cl)c(N)n4)CC3)CC2)C(C)(C)C)cc1` , the logged concentration at 2 h turned out to be 1660 nM

====

# PROTOCOL DETAILS: Pharmacokinetics in mice, single IP injection
# Format: in vivo
# TEST CONTEXT: mice, single IP 50 mg/kg, plasma; 50 mg/kg
# Procedure: Experiments on mice were carried out in accordance with the regulations of the Institutional Animal Care and Use Committees at Purdue University. All mice were housed under pathogen-free conditions in the animal facility and received autoclaved water and food. Eight to ten weeks-old Nude mice were used in the study. For pharmacokinetic studies, mice were administered a single dose of P9 at 25 or 50 mg/kg via IP injection. […]
PROPERTY MEASURED: Cmax

So for Cc1ncsc1-c1ccc([C@H](C)NC(=O)[C@@H]2C[C@@H](O)CN2C(=O)[C@@H](NC(=O)CCCCCCCCCN2CCN(C(=O)CCCCCC3(CN)CCN(c4cnc(Sc5cccc(Cl)c5Cl)c(N)n4)CC3)CC2)C(C)(C)C)cc1 [P9] , the logged Cmax turned out to be 2500 nM
